Entry source: PubChem BioAssay AID1016

- Test system: alkaline phosphatase, intestinal [Bos taurus]
- PROTOCOL_NOTES: IAP enzyme activity enhancers – biochemical, bovine IAP, CDP-star luminescence, primary screen (AID 1016)
- EXPERIMENTAL_PARAMETERS: purified bovine IAP, 30 min, at 20 µM, fold of DMSO-control signal, blank-subtracted
Among all 200,000 compounds or so, about 330 (0.17%) were called active.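 Rule for the calls: active = activation factor of 2 or more at 20 µM, a signal rise over negative controls twice the positive control's; inactive = the rest.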 The sample holds actives, similar compounds and a random draw of the others, so the mix is not that of the screen.
Answer with one of the outcomes given here: YES for active, NO for inactive

O=C(NCc1cccs1)c1ccc(Br)o1 : NO

Now, please, on to the next molecule.
Call for entry N=c1c2c(-c3ccccc3)c(-c3ccccc3)n(Cc3ccccc3)c2ncn1CCCO :
NO
